Assay: Steady-state pharmacokinetics of gemcabene at 300, 600, 900 mg/day in FH patients
Type: in vivo, human
Conditions: human, plasma, oral, 900 mg/day, 900 mg/day (3× Tablet D), steady state, FH patients, mean, n=7; read-out: AUClast
ATTRIBUTE MEASURED: AUC(0-t) (µg·h/mL)

compound="CC(C)(CCCCOCCCCC(C)(C)C(=O)O)C(=O)O [gemcabene]" assay_value=3490

* * *

Recorded D50 (PSD50) by entry
Experiment: Particle size distribution by laser light diffraction (Malvern Mastersizer 2000, Fraunhofer)
Assay type: physicochemical
Conditions: cumulative volume
ATTRIBUTE MEASURED: D50 (PSD50) (μm)

molecule="CC(C)(CCCCOCCCCC(C)(C)C(=O)[O-])C(=O)[O-].[Ca+2] [Sample 6]" attribute_measured="D50 (PSD50)" assay_value=25
molecule="CC(C)(CCCCOCCCCC(C)(C)C(=O)[O-])C(=O)[O-].[Ca+2] [Sample 4]" attribute_measured="D50 (PSD50)" assay_value=22
molecule="CC(C)(CCCCOCCCCC(C)(C)C(=O)[O-])C(=O)[O-].[Ca+2] [Sample 2]" attribute_measured="D50 (PSD50)" assay_value=22.9
molecule="CC(C)(CCCCOCCCCC(C)(C)C(=O)[O-])C(=O)[O-].[Ca+2] [Sample 5]" attribute_measured="D50 (PSD50)" assay_value=101
molecule="CC(C)(CCCCOCCCCC(C)(C)C(=O)[O-])C(=O)[O-].[Ca+2] [Sample 8]" attribute_measured="D50 (PSD50)" assay_value=24
molecule="CC(C)(CCCCOCCCCC(C)(C)C(=O)[O-])C(=O)[O-].[Ca+2] [Sample 3]" attribute_measured="D50 (PSD50)" assay_value=32.2
molecule="CC(C)(CCCCOCCCCC(C)(C)C(=O)[O-])C(=O)[O-].[Ca+2] [Sample 1]" attribute_measured="D50 (PSD50)" assay_value=50.4
molecule="CC(C)(CCCCOCCCCC(C)(C)C(=O)[O-])C(=O)[O-].[Ca+2] [Sample 7]" attribute_measured="D50 (PSD50)" assay_value=20
molecule="CC(C)(CCCCOCCCCC(C)(C)C(=O)[O-])C(=O)[O-].[Ca+2] [Sample 9]" attribute_measured="D50 (PSD50)" assay_value=386

* * *

Assay: Steady-state pharmacokinetics of gemcabene at 300, 600, 900 mg/day in FH patients
Format: in vivo, human
Settings: human, plasma, oral; 900 mg/day treatment period, Day 14; read-out: trough gemcabene plasma concentration, patient 006-003
ATTRIBUTE MEASURED: concentration at 14 day of the 900 mg/day period (µg/mL)

query_smiles=CC(C)(CCCCOCCCCC(C)(C)C(=O)O)C(=O)O assay_value=122

* * *

Assay: Steady-state pharmacokinetics of gemcabene at 300, 600, 900 mg/day in FH patients
Type: in vivo, human
Details: human, plasma, oral; 600 mg dose level, after 28 daily doses; min-max 0.93-3.0 h; read-out: Median Tmax
ATTRIBUTE MEASURED: Tmax (h)

query_smiles=CC(C)(CCCCOCCCCC(C)(C)C(=O)O)C(=O)O attribute_measured=Tmax assay_value=1.5

* * *

Experiment: Steady-state pharmacokinetics of gemcabene at 300, 600, 900 mg/day in FH patients
Format: in vivo, human
Conditions: human, plasma, oral, 600 mg/day, 600 mg/day (2× Tablet D), steady state, FH patients, mean, n=8; read-out: AUClast
ATTRIBUTE MEASURED: AUC(0-t) (µg·h/mL)

query_smiles=CC(C)(CCCCOCCCCC(C)(C)C(=O)O)C(=O)O assay_value=2700

This collection of values is drawn from patent US20200148617A1.
